Please respond with reported EC50 for every item in the list.
Target: alpha2A receptor (Homo sapiens, UniProt P08913)
Sequence (P08913 1-465): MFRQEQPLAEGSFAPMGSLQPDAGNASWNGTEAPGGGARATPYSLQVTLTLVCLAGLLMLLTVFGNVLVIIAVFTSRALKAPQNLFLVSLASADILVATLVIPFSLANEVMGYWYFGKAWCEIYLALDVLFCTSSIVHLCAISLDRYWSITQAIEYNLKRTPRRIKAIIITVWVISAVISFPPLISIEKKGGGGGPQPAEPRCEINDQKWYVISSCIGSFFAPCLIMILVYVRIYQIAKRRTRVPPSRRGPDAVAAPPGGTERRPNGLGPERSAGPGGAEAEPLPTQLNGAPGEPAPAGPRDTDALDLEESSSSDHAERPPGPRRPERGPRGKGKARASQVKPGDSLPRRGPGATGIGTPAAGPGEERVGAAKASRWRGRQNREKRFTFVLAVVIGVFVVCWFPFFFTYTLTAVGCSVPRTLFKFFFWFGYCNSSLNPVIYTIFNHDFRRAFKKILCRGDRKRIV
Assay: RSAT assay, alpha 2A
Assay type: cell-based

Task item: Data request, read-out EC50, for COc1c(C)cccc1CNC1=NCCS1
Reply: 481 nM

Task item: What measured EC50 goes with COc1c(Cl)cccc1CNC1=NCCS1 ?
Reply: 701 nM

Task item: Give its EC50 value. Item: Clc1c(Br)cccc1CNC1=NCCS1
Reply: > 3000 nM

Task item: Would you kindly share the measured EC50 for Fc1c(Br)cccc1CNC1=NCCS1 ?
Reply: 1380 nM

Task item: So what's the measured EC50 for this one? Brc1ccccc1CNC1=NCCS1
Reply: 2780 nM
